- measurement-notes: Inhibition of swine H+/K+-ATPase after 30 mins by colorimetry
- Design: species or system Sus scrofa
Labelling: IC50 reported below 50 nM becomes True; at or above becomes False.

Illustrative cases are given below, each with its answer.
CNCc1cc(-c2ccccc2CO)n(S(=O)(=O)c2cccnc2)c1 :: False
CNCc1cc(-c2cccc(F)c2)n(S(=O)(=O)c2cccnc2)c1 :: True

Ask: IC50 strictly < 50 nM for this compound? CNCc1cc(-c2ccccc2)n(S(=O)(=O)c2ccsc2)c1
Reply: True

Ask: Problem: For the compound CNCc1cc(-c2ccccc2C#N)n(S(=O)(=O)c2cccnc2)c1 , is IC50 under 50 nM?
Reply: False

Ask: Quick check: does CNCc1cc(-c2ccccc2)n(S(=O)(=O)c2cccc(S(C)(=O)=O)c2)c1 have IC50 under 50 nM?
Reply: False

Ask: For this compound, is IC50 lower than 50 nM? CNCc1cc(-c2ccc(F)cc2)n(S(=O)(=O)c2cccnc2)c1
Reply: True

----------
- measurement-notes: Inhibition of swine H+/K+-ATPase after 30 mins by colorimetry
- Parameters: species or system Sus scrofa
metric: IC50 (µM)
Number in µM, nothing else.

Worked set:
CNCc1cc(-c2ccccc2)n(S(=O)(=O)c2cccc(OC)c2)c1 :: 0.011
CNCc1cc(-c2ccccc2)n(S(=O)(=O)c2ccc(C)nc2)c1 :: 0.034
CNCc1cc(-c2ccccc2)n(S(=O)(=O)c2cccs2)c1 :: 0.051
CNCc1cc(-c2ccccc2C)n(S(=O)(=O)c2cccnc2)c1 :: 0.046

Now look at this one.
Value of IC50 reported for the compound CNCc1cc(-c2ccccc2)n(S(=O)(=O)c2cccnc2)c1 is 0.016
